# target: RELARELA (p65 homodimer) (Homo sapiens, UniProt Q04206 1-307)
# Sequence (Q04206 1-307): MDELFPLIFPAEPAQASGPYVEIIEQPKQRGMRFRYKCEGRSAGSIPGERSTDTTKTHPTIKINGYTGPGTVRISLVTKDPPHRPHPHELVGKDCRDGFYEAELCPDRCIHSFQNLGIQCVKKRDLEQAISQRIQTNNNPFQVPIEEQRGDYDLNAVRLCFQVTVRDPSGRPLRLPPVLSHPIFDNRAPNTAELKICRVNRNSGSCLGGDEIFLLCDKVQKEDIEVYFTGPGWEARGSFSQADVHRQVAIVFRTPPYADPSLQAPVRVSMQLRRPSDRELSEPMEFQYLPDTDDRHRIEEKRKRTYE
# test.name: protein binding microarray; high values mean tight binding
# condition: dsDNA, one strand shown
Consider the following partition of reported binding signal into named classes: low (below -0.2 z-score), moderate (-0.2 z-score to below 0.7 z-score), high (0.7 z-score or more)

Solved entries (count: 4):
1. AAGTATGCCCC    moderate
2. AAGAACACCCC    low
3. GAAGAAATCCC    high
4. CAATTCCTCCT    moderate

Which of the defined bands does the recorded binding signal of "AGAGGTCTCCC" sit within?
moderate

Which of the defined bands does the recorded binding signal of "GGGTTATCCCC" sit within?
high

Which of the defined bands does the recorded binding signal of "CAAAGGCCCCC" sit within?
low

Which of the defined bands does the recorded binding signal of "CAAGTAATCCC" sit within?
moderate

Which of the defined bands does the recorded binding signal of "CGATGGGCCCT" sit within?
low

Which of the defined bands does the recorded binding signal of "CGGAAAACCCC" sit within?
high

Which of the defined bands does the recorded binding signal of "GGGGTAACCCT" sit within?
high

Which of the defined bands does the recorded binding signal of "GGGAACGCCCT" sit within?
high

Which of the defined bands does the recorded binding signal of "AGATTACTCCT" sit within?
moderate

Which of the defined bands does the recorded binding signal of "CAGGTGCTCCT" sit within?
low

Which of the defined bands does the recorded binding signal of "AGAAACTTCCC" sit within?
high

Which of the defined bands does the recorded binding signal of "CGATGACCCCT" sit within?
low

Which of the defined bands does the recorded binding signal of "GAATATCCCCC" sit within?
high

Which of the defined bands does the recorded binding signal of "AGGGGACTCCC" sit within?
high

Which of the defined bands does the recorded binding signal of "CAGATGTTCCT" sit within?
low

Which of the defined bands does the recorded binding signal of "CAATTCCCCCC" sit within?
high

Which of the defined bands does the recorded binding signal of "CGAAAGATCCC" sit within?
moderate

Which of the defined bands does the recorded binding signal of "CAGGTTGTCCT" sit within?
moderate

Which of the defined bands does the recorded binding signal of "GGGTGTTTCCT" sit within?
high

Which of the defined bands does the recorded binding signal of "CAAGGGTCCCT" sit within?
low

Which of the defined bands does the recorded binding signal of "GGGGGGCCCCT" sit within?
moderate

* * *

# target: p52p52 homodimer (Homo sapiens, UniProt Q00653 4-332)
# Sequence: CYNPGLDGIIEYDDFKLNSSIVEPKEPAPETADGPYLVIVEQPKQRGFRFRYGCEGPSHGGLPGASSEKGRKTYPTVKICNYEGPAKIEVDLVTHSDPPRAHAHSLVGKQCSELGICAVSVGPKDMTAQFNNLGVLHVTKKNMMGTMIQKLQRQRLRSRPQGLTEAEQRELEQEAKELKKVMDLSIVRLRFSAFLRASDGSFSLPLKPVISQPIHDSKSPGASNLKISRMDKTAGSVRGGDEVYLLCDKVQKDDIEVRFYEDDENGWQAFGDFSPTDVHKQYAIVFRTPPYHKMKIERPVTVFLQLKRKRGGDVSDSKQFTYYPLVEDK
# test.name: protein binding microarray; high values mean tight binding
# condition: dsDNA, one strand shown
reported.metric: binding signal (z-score)
Kindly provide the numeric value in z-score only, without the unit symbol.

Some entries whose results are on file:
1. CAATAATCCCT    0.735
2. GAATACATCCT    -0.677
3. AGGGTGGTCCC    0.435

Attention now turns to another entry.
For this sequence ( "AAGGAGCTCCC" ), measured binding signal is -0.562

* * *

# target: RELA (p65) subunit of heterodimer;p52 subunit (Homo sapiens;Homo sapiens, UniProt Q04206;Q00653 1-307;4-332)
# Sequence (Q04206 1-307, one chain of several): as the sequence (Q04206 1-307) above
# test.name: protein binding microarray; high values mean tight binding
# condition: dsDNA, one strand shown
# note: boundary value 0.3 z-score maps to not fulfilled; binding signal below it maps to fulfilled

1. AGGGACGTCCT    not fulfilled
2. AGGTGTGCCCT    fulfilled

Quick check: does "GAGTTCTCCCC" have binding signal under 0.3 z-score?
not fulfilled

Quick check: does "AAAATAACCCC" have binding signal under 0.3 z-score?
not fulfilled

Quick check: does "CGAGTTGCCCC" have binding signal under 0.3 z-score?
not fulfilled

Quick check: does "CGAGGCATCCC" have binding signal under 0.3 z-score?
fulfilled

Quick check: does "GGGAAAGCCCC" have binding signal under 0.3 z-score?
not fulfilled

Quick check: does "GAATAGGTCCT" have binding signal under 0.3 z-score?
fulfilled

* * *

# target: RELB subunit;p52 subunit (Homo sapiens;Homo sapiens, UniProt Q01201;Q00653 120-401;4-332)
# Sequence 1: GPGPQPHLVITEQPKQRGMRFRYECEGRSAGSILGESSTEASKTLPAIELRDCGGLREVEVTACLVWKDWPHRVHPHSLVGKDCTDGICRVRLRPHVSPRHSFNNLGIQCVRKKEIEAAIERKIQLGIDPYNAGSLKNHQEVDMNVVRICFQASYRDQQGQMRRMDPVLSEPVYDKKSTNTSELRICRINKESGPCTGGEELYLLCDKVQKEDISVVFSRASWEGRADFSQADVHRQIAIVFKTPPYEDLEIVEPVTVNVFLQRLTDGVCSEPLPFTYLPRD
# Sequence 2: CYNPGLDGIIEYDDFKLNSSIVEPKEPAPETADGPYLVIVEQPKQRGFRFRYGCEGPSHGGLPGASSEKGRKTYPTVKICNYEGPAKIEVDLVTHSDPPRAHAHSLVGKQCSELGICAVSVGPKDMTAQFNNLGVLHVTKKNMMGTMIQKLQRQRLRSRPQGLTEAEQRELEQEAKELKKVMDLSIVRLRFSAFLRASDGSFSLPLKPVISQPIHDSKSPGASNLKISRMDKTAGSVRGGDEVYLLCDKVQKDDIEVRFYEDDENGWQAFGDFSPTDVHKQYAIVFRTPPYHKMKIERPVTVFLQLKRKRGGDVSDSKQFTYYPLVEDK
# test.name: protein binding microarray; high values mean tight binding
# condition: dsDNA, one strand shown
Consider the following partition of reported binding signal into named classes: band 1 (below -0.8 z-score), band 2 (-0.8 z-score to below -0.1 z-score), band 3 (-0.1 z-score or more)

Solved entries (count: 5):
1. AGGAAACTCCT    band 1
2. GAAGGCATCCT    band 1
3. AAGTTTCCCCT    band 3
4. CGATTAGTCCT    band 2
5. GAAGAAATCCC    band 3

Which of the defined bands does the recorded binding signal of "GAAGTGGCCCC" sit within?
band 2

Which of the defined bands does the recorded binding signal of "CAAGACCTCCC" sit within?
band 2

Which of the defined bands does the recorded binding signal of "CAGAACCTCCT" sit within?
band 1

Which of the defined bands does the recorded binding signal of "AAAATAGTCCT" sit within?
band 1

Which of the defined bands does the recorded binding signal of "CGATGGATCCT" sit within?
band 1

Which of the defined bands does the recorded binding signal of "AAGTGTATCCC" sit within?
band 2

Which of the defined bands does the recorded binding signal of "CGGTACATCCC" sit within?
band 3

Which of the defined bands does the recorded binding signal of "CGGTGGATCCC" sit within?
band 3

* * *

# target: C-Rel subunit;p50 subunit (Homo sapiens;Homo sapiens, UniProt Q04864;P19838 1-285;7-356)
# Sequence (Q04864 1-285, chain 1 of 2): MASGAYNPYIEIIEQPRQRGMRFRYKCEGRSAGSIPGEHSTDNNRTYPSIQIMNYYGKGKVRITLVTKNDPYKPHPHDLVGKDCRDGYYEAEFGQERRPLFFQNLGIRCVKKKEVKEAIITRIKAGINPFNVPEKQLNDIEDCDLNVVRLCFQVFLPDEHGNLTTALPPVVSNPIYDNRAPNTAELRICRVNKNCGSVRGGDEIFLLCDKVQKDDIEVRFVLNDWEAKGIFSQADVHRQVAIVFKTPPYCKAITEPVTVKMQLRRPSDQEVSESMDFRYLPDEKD
# Sequence (P19838 7-356, chain 2 of 2): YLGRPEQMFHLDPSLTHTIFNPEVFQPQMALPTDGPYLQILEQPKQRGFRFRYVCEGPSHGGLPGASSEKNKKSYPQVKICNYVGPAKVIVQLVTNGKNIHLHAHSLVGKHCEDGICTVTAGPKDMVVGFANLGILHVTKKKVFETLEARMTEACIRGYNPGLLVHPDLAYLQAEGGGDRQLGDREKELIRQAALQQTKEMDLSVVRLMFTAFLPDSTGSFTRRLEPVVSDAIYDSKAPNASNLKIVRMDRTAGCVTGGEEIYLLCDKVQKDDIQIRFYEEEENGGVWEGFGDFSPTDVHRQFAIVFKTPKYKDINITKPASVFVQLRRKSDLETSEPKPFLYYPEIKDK
# test.name: protein binding microarray; high values mean tight binding
# condition: dsDNA, one strand shown
Criterion: binding signal meeting or surpassing -0.02 z-score. Met: Satisfied. Not met: Not satisfied.

Solved entries (count: 4):
1) CAGGGGTTCCT    Not satisfied
2) AGGTGACTCCT    Not satisfied
3) CGATATTTCCT    Not satisfied
4) CGAGTTCTCCC    Not satisfied

Kindly determine if binding signal recorded for "GAATACTCCCC" is above or exactly -0.02 z-score.
Satisfied

Kindly determine if binding signal recorded for "CAGTACCCCCC" is above or exactly -0.02 z-score.
Satisfied

Kindly determine if binding signal recorded for "GGGGGCCTCCC" is above or exactly -0.02 z-score.
Satisfied

Kindly determine if binding signal recorded for "AGGAGCCTCCC" is above or exactly -0.02 z-score.
Not satisfied

Kindly determine if binding signal recorded for "CGGAGGTTCCC" is above or exactly -0.02 z-score.
Satisfied

Kindly determine if binding signal recorded for "CAGTGGCTCCC" is above or exactly -0.02 z-score.
Not satisfied

Kindly determine if binding signal recorded for "GGGAAGCTCCC" is above or exactly -0.02 z-score.
Satisfied

* * *

# target: RELA (p65) subunit of heterodimer;p50 subunit (Homo sapiens;Homo sapiens, UniProt Q04206;P19838 1-307;7-356)
# Sequence (Q04206 1-307, chain 1 of 2): as the sequence (Q04206 1-307) above
# Sequence (P19838 7-356, chain 2 of 2): as the sequence (P19838 7-356, chain 2 of 2) above
# test.name: protein binding microarray; high values mean tight binding
# condition: dsDNA, one strand shown
Criterion: binding signal meeting or surpassing 0.1 z-score. Met: 1 (yes). Not met: 0 (no).

1. GGAAGGGCCCC    1 (yes)
2. GAGTATTTCCC    1 (yes)

Kindly determine if binding signal recorded for "AGGTGTCCCCC" is above or exactly 0.1 z-score.
1 (yes)

Kindly determine if binding signal recorded for "GAGGGTGTCCC" is above or exactly 0.1 z-score.
1 (yes)
